Where these numbers come from: patent US20250382344A1

EC50, CreLuc reporter, 100% hP values by entry
Target: human GLP-1 receptor (human, UniProt P43220 24-463)
Assay: cell-based or functional assay
*1 amine or outer side, *2 acyl side, *3 side chain or, on linkers, in order; H or OH if unused. Where no end group is shown, it is not given here. Side-chain parts run from the residue outwards. [ ]: non-standard residue; d: D form. The star is where a group is joined. C20 diacid = O=C(O)CCCCCCCCCCCCCCCCCCC(=O)*; γGlu = O=C(O)[C@H](CCC(=O)[*:2])N[*:1]; Aib = CC(C)(N)C(=O)O

binder	EC50, CreLuc reporter, 100% hP / nM
YXEGTFTSDYSIXLEKQEQXAFVRHLINKXTRQRY (Aib at 2, 13, 20, 30; Lys29 epsilon-amino acylated with C18DA-gGlu-gGlu-gGlu-gGlu-gGlu-gGlu-eLys; C-terminal amide) [Compound 36]	16.9
Y[Aib]EGTFTSDYSIALEKQAQ[Aib]AFVRHLINK([γGlu-γGlu-γGlu-γGlu-γGlu-γGlu-C20 diacid])[Aib]TRQRY-NH2 [Compound 29]	33
Y[Aib]EGTFTSDYSI[Aib]LEKQAQ[Aib]AFVRHLINK([γDab-γGlu-γGlu-γGlu-γGlu-γGlu-γGlu-C20 diacid])[Aib]TRQRY-NH2 [Compound 46]	5.3
